The origin of these recorded values is patent US10221138B2.

- study.target: hGPR120 (Homo sapiens)
- Construct: expressed in transfected cells; host or cells: CHO-K1
- Sequence (Q5NUL3 whole entry): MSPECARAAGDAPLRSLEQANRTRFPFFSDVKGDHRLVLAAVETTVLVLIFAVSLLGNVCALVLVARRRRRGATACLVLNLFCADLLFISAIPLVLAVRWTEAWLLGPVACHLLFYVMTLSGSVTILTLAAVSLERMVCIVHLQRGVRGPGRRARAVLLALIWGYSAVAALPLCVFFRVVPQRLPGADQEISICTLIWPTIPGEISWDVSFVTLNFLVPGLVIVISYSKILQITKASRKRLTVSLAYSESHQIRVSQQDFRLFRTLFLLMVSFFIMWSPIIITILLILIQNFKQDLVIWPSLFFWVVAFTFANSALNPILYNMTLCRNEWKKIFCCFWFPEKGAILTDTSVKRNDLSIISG
- procedure.summary: Measurement of activity of GPR120 agonist (cell-based calcium fluorescence assay)
- test.conditions: CHO-K1 cells expressing Ga16 and hGPR120, Calcium 5 dye fluorescence; activity class; read-out: EC50
- Procedure: CHO-K1 cells expressing Ga16 and hGPR120 were dispensed into each well of a 96-well plate (3×10^4 cells/100 μl/well) and then incubated in 5% CO2, 37° C. incubator for 18 hours. […] Fluorescence increased by the serially diluted GPR120 agonists is calculated as a relative percent (%) value based on the fluorescence represented by the treatment of 1% DMSO only. […]
EC50 by entry:

Some compounds with recorded EC50:
O=C(O)CCCSc1ccc(-c2cc(F)ccc2OC2CCCC2)cc1
200 to 2000 nM
O=C(O)CCCSc1c(F)cc(-c2cccnc2SC2CCCC2)cc1F
< 200 nM
O=C(O)CCCSc1ccc(-c2ccccc2NC2CCCC2)cc1F
< 200 nM
O=C(O)CCCSc1ccc(-c2cccnc2OC2CCC2)cc1F
< 200 nM
O=C(O)CCCOc1c(F)cc(-c2cccnc2OCC2CCOC2)cc1F (stereo not drawn)
2000 to 20000 nM

Please find the next compound below.
**Query** What value of EC50 has been reported for the following compound? CC(C)Nc1ncccc1-c1cc(F)c(SCCCC(=O)O)c(F)c1
**Result** 200 to 2000 nM
